Target: human TLR9 (Homo sapiens, UniProt Q9NR96)
Sequence (Q9NR96 26-1032): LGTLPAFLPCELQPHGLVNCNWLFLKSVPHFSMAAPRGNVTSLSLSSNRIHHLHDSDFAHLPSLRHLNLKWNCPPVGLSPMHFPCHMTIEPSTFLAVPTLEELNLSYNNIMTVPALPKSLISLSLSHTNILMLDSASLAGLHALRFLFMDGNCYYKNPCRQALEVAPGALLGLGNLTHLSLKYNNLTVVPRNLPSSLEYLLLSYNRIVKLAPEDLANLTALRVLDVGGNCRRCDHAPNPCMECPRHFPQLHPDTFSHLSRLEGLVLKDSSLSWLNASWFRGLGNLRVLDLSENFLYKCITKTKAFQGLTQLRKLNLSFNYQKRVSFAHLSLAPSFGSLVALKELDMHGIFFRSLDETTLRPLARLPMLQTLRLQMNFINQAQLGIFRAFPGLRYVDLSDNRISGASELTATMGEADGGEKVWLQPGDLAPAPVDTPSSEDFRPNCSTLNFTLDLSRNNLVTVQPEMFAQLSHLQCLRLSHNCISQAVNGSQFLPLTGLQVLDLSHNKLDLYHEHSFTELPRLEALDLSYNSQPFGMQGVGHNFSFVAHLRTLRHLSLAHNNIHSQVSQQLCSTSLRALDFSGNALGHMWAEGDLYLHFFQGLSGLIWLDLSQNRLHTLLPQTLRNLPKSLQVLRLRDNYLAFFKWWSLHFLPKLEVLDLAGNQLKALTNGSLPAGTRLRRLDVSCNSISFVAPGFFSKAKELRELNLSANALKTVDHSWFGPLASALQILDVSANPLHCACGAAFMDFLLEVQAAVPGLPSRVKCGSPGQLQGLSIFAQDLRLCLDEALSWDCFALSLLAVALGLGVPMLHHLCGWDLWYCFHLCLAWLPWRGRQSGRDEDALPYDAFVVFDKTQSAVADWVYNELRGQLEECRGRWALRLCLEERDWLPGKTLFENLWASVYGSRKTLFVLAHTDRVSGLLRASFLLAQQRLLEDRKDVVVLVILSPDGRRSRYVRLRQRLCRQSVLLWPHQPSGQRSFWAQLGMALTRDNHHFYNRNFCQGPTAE
Assay: TLR9 inhibition reporter assay (HEK-Blue cells, SEAP reporter, ODN2006 stimulation)
Conditions: HEK-Blue cells overexpressing human TLR9, SEAP reporter, ODN2006 5 nM
pIC50: −log10 of the molar value.
Measured Attribute: pIC50

> print(dat)
                                   compound  test.value
1  Cc1cc(-c2[nH]c3ccc(C4CN(C(=O)CN(C)C)C(C)(C)CO4)cc3c2C(C)C)cn2ncnc12 (single isomer, unassigned) [Example 372]        4.57
2  Cc1cc(-c2[nH]c3ccc(C4CN(C5CCS(=O)(=O)CC5)C4)cc3c2C(C)C)cc(C)n1        6.05

1. Cc1c(-c2[nH]c3ccc(C4CN(C(=O)CN(C)C)C4)cc3c2C(C)C)cn(C)c(=O)c1C
2. Cc1c(-c2[nH]c3ccc(C4CN(C)C4)cc3c2C(C)C)cn2ncnc2c1C
Input line: Of 1 and 2 , which shows the smaller pIC50 value? Please respond with the label that marks your chosen entry.
Output line: 1
